assayed-target: Bifunctional 3'-5' exonuclease/ATP-dependent helicase WRN [480-1251] (UniProt Q14191)
Construct: 480-1251
Sequence (Q14191 480-1251): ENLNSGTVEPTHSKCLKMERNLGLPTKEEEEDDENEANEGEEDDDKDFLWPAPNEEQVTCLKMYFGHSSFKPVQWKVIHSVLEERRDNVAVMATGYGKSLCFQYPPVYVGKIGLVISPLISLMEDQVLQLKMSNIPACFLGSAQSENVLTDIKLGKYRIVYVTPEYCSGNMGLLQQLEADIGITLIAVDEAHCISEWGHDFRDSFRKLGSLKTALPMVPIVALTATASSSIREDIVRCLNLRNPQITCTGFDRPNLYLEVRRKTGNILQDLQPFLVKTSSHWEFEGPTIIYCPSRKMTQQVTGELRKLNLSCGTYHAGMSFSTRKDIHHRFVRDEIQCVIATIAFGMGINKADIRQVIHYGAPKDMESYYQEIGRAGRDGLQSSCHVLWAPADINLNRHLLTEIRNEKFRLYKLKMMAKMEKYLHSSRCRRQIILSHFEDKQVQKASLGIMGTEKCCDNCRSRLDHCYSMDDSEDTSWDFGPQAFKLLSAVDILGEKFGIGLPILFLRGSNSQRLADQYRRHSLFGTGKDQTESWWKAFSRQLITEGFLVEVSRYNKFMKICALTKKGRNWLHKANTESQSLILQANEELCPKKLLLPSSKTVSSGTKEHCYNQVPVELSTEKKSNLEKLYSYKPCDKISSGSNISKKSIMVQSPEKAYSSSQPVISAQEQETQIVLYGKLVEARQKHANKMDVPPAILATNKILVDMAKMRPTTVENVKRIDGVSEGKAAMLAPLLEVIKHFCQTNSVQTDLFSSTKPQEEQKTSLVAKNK
test-summary: Biochemical Activity Assays
quantity: IC50 (nM)
Expressed in nM, but write only the number.

Case CCc1c(N2CCN(C(=O)c3ncnc(C)c3O)CC2)c(=O)n2nc(N(C)C)nc2n1C(F)(F)C(=O)Nc1ccc(C(F)(F)F)cc1Cl , Bifunctional 3'-5' exonuclease/ATP-dependent helicase WRN [480-1251] (UniProt Q14191), IC50 recorded as 45

Case CCc1c(N2CCN(C(=O)c3ncnc(C)c3O)CC2)c(=O)n2nc(-c3ccc4c(c3)c(C)nn4C)nc2n1CC(=O)Nc1ccc(C(F)(F)F)cc1Cl , Bifunctional 3'-5' exonuclease/ATP-dependent helicase WRN [480-1251] (UniProt Q14191), IC50 recorded as 37

Case CCc1c(N2CCN(C(=O)c3ncnc(C)c3O)CC2)c(=O)n2nc(-c3ccc4c(cnn4C)c3)nc2n1CC(=O)Nc1ccc(C(F)(F)F)cc1Cl , Bifunctional 3'-5' exonuclease/ATP-dependent helicase WRN [480-1251] (UniProt Q14191), IC50 recorded as 23

Case CCc1c(N2CCN(C(=O)c3ncnc(C)c3O)CC2)c(=O)n2nc(-c3ccc4oc(=O)n(C)c4c3)nc2n1CC(=O)Nc1ccc(C(F)(F)F)cc1Cl , Bifunctional 3'-5' exonuclease/ATP-dependent helicase WRN [480-1251] (UniProt Q14191), IC50 recorded as 32

Case CCc1c(N2CCN(C(=O)c3ncnc(C)c3O)CC2)c(=O)n2nc(-c3ccc4c(c3)C[C@H](OC)C4)nc2n1CC(=O)Nc1ccc(C(F)(F)F)cc1Cl , Bifunctional 3'-5' exonuclease/ATP-dependent helicase WRN [480-1251] (UniProt Q14191), IC50 recorded as 33

Case CCc1c(N2CCN(C(C)=O)CC2)c(=O)n2nc(N(C)C)nc2n1CC(=O)Nc1ccc(C(F)(F)F)cc1Cl , Bifunctional 3'-5' exonuclease/ATP-dependent helicase WRN [480-1251] (UniProt Q14191), IC50 recorded as 174

Case CCc1c(N2CC[C@@H](C)N(C(=O)c3ncnc(C)c3O)CC2)c(=O)n2nc(-c3ccc4c(c3)COC4(C)C)nc2n1CC(=O)Nc1ccc(C(F)(F)F)cc1Cl , Bifunctional 3'-5' exonuclease/ATP-dependent helicase WRN [480-1251] (UniProt Q14191), IC50 recorded as 50

Case CCc1c(N2CCN(C(=O)c3ncnc(C)c3O)CC2)c(=O)n2nc(N3CCC4(COC4)C3)nc2n1CC(=O)Nc1ccc(C(F)(F)F)cc1Cl , Bifunctional 3'-5' exonuclease/ATP-dependent helicase WRN [480-1251] (UniProt Q14191), IC50 recorded as 63.2

Case CCc1c(N2CCN(C(=O)c3ncnc(C)c3O)CC2)c(=O)n2nc(-c3ccc4c(c3)C(=O)N(C)C4)nc2n1CC(=O)Nc1ccc(C(F)(F)F)cc1Cl , Bifunctional 3'-5' exonuclease/ATP-dependent helicase WRN [480-1251] (UniProt Q14191), IC50 recorded as 45

Case Cc1ncnc(C(=O)N2CCN(c3c4n(c5nc(-c6ccc7c(c6)COC7(C)C)nn5c3=O)[C@@H](C(=O)Nc3ccc(C(F)(F)F)cc3Cl)C[C@H]4C)CC2)c1O , Bifunctional 3'-5' exonuclease/ATP-dependent helicase WRN [480-1251] (UniProt Q14191), IC50 recorded as 34.6

Case CCc1c(N2CCN(C(=O)c3cccc[n+]3[O-])CC2)c(=O)n2nc(C3=CCOCC3)nc2n1CC(=O)Nc1ccc(C(F)(F)F)cc1Cl , Bifunctional 3'-5' exonuclease/ATP-dependent helicase WRN [480-1251] (UniProt Q14191), IC50 recorded as 68.4

Case CCc1c(N2CCN(C(=O)c3ncnc(C)c3O)CC2)c(=O)n2nc(-c3cc(C)c4nn(C)cc4c3)nc2n1CC(=O)Nc1ccc(C(F)(F)F)cc1Cl , Bifunctional 3'-5' exonuclease/ATP-dependent helicase WRN [480-1251] (UniProt Q14191), IC50 recorded as 31

Case CCc1c(N2CCN(C(=O)c3nccc4nc[nH]c34)CC2)c(=O)n2nc(-c3ccc4c(c3)COC4(C)C)nc2n1CC(=O)Nc1ccc(C(F)(F)F)cc1Cl , Bifunctional 3'-5' exonuclease/ATP-dependent helicase WRN [480-1251] (UniProt Q14191), IC50 recorded as 55

Case CCc1c(N2CCN(C(=O)c3ncnc(C)c3O)CC2)c(=O)n2nc(N(C)C)nc2n1CC(=O)Nc1ccc(SC(F)(F)F)cc1 , Bifunctional 3'-5' exonuclease/ATP-dependent helicase WRN [480-1251] (UniProt Q14191), IC50 recorded as 396

Case CCC1=C(N2CCN(C(=O)C3=C4NN=CC4CC=N3)CC2)C(=O)N2N=C(C3CCOCC3)NC2N1CC(=O)Nc1ccc(C(F)(F)F)cc1Cl (stereo unspecified) , Bifunctional 3'-5' exonuclease/ATP-dependent helicase WRN [480-1251] (UniProt Q14191), IC50 recorded as 56.9

Case CCc1c(N2CCN(C(=O)c3ncnc(C)c3O)CC2)c(=O)n2nc(-c3cncc4c3COCC4)nc2n1CC(=O)Nc1ccc(C(F)(F)F)cc1Cl , Bifunctional 3'-5' exonuclease/ATP-dependent helicase WRN [480-1251] (UniProt Q14191), IC50 recorded as 84

Case CCc1c(N2CCN(C(=O)c3ncnc(C)c3O)CC2)c(=O)n2nc(-c3cc4c(cc3F)COC4)nc2n1CC(=O)Nc1ccc(C(F)(F)F)cc1Cl , Bifunctional 3'-5' exonuclease/ATP-dependent helicase WRN [480-1251] (UniProt Q14191), IC50 recorded as 21

Case CCc1c(N2CCN(C(=O)c3ncnc(C)c3O)CC2)c(=O)n2nc(-c3ccc4c(c3)C[C@@H](OC)C4)nc2n1CC(=O)Nc1ccc(C(F)(F)F)cc1Cl , Bifunctional 3'-5' exonuclease/ATP-dependent helicase WRN [480-1251] (UniProt Q14191), IC50 recorded as 31

Case CCc1c(N2CCN(C(=O)c3ncnc(C)c3O)CC2)c(=O)n2nc(-c3cnc4[nH]cc(Cl)c4c3)nc2n1CC(=O)Nc1ccc(C(F)(F)F)cc1Cl , Bifunctional 3'-5' exonuclease/ATP-dependent helicase WRN [480-1251] (UniProt Q14191), IC50 recorded as 53

Case CCc1c(N2CCN(C(=O)c3ncnc(C)c3O)CC2)c(=O)n2nc(-c3coc4ccccc34)nc2n1CC(=O)Nc1ccc(C(F)(F)F)cc1Cl , Bifunctional 3'-5' exonuclease/ATP-dependent helicase WRN [480-1251] (UniProt Q14191), IC50 recorded as 56

Case CCc1c(N2CCN(C(=O)c3ncnc(C)c3O)CC2)c(=O)n2nc(-c3cccc4c3CCO4)nc2n1CC(=O)Nc1ccc(C(F)(F)F)cc1Cl , Bifunctional 3'-5' exonuclease/ATP-dependent helicase WRN [480-1251] (UniProt Q14191), IC50 recorded as 62
